# System: PPARg homodimer (NR concentration 180 nM)
# test-details: PBM binding z-score (relative to random genomic background probes); higher = stronger binding; sequences stand for … in GC…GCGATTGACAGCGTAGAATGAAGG
Output: class label from PBM binding z-score. Mapping: low class = under 0.7, middle class = from 0.7 up to 1, high class = 1 and over

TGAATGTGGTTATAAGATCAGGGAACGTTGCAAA	middle class
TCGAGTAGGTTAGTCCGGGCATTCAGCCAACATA	low class
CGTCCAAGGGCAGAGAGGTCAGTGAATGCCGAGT	high class
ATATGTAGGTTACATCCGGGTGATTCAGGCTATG	high class
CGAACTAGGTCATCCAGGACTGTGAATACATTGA	high class
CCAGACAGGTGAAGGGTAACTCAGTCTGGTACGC	low class
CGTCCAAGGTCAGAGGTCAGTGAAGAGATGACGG	high class
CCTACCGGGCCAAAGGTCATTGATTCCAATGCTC	high class
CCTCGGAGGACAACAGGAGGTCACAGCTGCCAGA	high class
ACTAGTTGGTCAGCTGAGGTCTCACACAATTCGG	low class
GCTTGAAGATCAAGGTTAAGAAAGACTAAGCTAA	low class
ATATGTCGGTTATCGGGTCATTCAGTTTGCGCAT	high class
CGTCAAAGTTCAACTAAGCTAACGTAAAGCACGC	high class
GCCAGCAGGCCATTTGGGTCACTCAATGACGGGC	low class
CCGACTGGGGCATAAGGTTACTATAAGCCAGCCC	low class
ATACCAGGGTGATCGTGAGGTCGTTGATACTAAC	high class
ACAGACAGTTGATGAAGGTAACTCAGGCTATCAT	middle class
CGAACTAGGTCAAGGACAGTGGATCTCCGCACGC	middle class
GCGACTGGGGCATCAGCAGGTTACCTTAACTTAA	low class
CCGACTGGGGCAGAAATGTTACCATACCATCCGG	low class
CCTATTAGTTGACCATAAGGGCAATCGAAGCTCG	high class
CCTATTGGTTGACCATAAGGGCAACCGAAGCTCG	low class
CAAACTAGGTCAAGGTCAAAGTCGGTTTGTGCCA	high class
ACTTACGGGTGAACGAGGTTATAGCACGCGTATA	middle class
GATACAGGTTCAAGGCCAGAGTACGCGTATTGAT	high class
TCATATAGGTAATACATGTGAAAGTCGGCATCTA	low class
ACTAGTTGGTCAGCTGAAGTCACACACAATTCGG	low class
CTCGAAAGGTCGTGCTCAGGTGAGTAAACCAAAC	high class
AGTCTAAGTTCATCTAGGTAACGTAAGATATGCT	high class
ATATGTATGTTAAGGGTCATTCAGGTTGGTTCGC	high class
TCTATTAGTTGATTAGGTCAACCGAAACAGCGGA	high class
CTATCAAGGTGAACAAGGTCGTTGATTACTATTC	middle class
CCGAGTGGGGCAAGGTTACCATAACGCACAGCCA	middle class
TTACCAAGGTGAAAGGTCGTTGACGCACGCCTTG	high class
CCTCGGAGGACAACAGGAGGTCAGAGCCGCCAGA	high class
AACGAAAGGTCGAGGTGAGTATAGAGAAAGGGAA	high class
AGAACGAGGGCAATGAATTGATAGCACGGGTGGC	low class
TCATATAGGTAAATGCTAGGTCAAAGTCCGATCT	high class
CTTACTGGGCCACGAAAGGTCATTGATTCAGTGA	high class
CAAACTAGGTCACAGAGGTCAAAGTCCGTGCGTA	high class
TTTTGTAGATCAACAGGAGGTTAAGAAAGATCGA	middle class
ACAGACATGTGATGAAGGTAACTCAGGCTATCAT	low class
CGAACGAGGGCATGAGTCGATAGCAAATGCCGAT	low class
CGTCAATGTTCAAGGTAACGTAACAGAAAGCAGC	low class
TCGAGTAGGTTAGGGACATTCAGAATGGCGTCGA	low class
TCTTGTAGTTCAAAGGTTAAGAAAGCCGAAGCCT	high class
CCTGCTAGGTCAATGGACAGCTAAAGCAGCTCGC	middle class
